Target: HIPK4 (human) (UniProt Q8NE63)
Sequence (Q8NE63 whole entry, looked up): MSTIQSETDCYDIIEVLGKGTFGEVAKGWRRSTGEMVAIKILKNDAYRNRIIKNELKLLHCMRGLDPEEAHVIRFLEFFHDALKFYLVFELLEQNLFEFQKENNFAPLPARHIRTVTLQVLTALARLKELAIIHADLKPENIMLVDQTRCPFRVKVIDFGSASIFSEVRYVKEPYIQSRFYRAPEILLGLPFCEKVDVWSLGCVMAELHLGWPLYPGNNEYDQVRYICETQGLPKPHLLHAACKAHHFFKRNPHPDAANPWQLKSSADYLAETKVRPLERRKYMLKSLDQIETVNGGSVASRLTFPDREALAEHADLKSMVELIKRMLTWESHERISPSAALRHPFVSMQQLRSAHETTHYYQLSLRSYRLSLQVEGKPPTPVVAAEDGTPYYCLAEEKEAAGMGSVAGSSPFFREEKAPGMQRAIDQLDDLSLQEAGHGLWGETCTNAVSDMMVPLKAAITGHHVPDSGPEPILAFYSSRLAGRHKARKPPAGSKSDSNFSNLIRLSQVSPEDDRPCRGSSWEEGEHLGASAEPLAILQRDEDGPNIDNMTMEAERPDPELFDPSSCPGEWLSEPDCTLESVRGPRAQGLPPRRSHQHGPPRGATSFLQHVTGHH
attribute measured: pKd
API: returns pKd as number; meaning -log10 of concentration in mol/L.

Request: Give pKd for this entry on HIPK4 (human) (UniProt Q8NE63): `COc1cc2ncnc(Oc3cccc(NC(=O)Nc4cc(C(C)(C)C(F)(F)F)on4)c3)c2cc1OC`
Response: 7.47

====

Target: EPHA3 (human)
attribute measured: Kd (nM)
Quick reminder: number only, in nM, skip the unit.

Request: Give Kd for this entry on EPHA3 (human): `COc1cc2ncnc(Oc3cccc(NC(=O)Nc4cc(C(C)(C)C(F)(F)F)on4)c3)c2cc1OC`
Response: 36

====

Target: UniProtKB P42680
attribute measured: Kd (µM)
Quick reminder: number only, in µM, skip the unit.

Request: Output Kd of `COc1cc2ncnc(Oc3cccc(NC(=O)Nc4cc(C(C)(C)C(F)(F)F)on4)c3)c2cc1OC`
Response: 6

====

Molecular target: TEK (human) (UniProt Q02763)
attribute measured: pKd
API: returns pKd as number; meaning -log10 of concentration in mol/L.

Request: Output pKd of `COc1cc2ncnc(Oc3cccc(NC(=O)Nc4cc(C(C)(C)C(F)(F)F)on4)c3)c2cc1OC`
Response: 6.89

====

Molecular target: CSNK1E (human)
attribute measured: Kd (µM)
Quick reminder: number only, in µM, skip the unit.

Request: Output Kd of `COc1cc2ncnc(Oc3cccc(NC(=O)Nc4cc(C(C)(C)C(F)(F)F)on4)c3)c2cc1OC`
Response: 16

====

Biological target: RIPK4 (human) (UniProt P57078)
attribute measured: pKd
API: returns pKd as number; meaning -log10 of concentration in mol/L.

Request: Give pKd for this entry on RIPK4 (human) (UniProt P57078): `COc1cc2ncnc(Oc3cccc(NC(=O)Nc4cc(C(C)(C)C(F)(F)F)on4)c3)c2cc1OC`
Response: 4.80

====

Molecular target: HUNK (human) (UniProt P57058)
attribute measured: pKd
API: returns pKd as number; meaning -log10 of concentration in mol/L.

Request: Give pKd for this entry on HUNK (human) (UniProt P57058): `COc1cc2ncnc(Oc3cccc(NC(=O)Nc4cc(C(C)(C)C(F)(F)F)on4)c3)c2cc1OC`
Response: 4.92

====

Target: LIMK1 (human) (UniProt P53667)
Sequence (P53667 whole entry, looked up): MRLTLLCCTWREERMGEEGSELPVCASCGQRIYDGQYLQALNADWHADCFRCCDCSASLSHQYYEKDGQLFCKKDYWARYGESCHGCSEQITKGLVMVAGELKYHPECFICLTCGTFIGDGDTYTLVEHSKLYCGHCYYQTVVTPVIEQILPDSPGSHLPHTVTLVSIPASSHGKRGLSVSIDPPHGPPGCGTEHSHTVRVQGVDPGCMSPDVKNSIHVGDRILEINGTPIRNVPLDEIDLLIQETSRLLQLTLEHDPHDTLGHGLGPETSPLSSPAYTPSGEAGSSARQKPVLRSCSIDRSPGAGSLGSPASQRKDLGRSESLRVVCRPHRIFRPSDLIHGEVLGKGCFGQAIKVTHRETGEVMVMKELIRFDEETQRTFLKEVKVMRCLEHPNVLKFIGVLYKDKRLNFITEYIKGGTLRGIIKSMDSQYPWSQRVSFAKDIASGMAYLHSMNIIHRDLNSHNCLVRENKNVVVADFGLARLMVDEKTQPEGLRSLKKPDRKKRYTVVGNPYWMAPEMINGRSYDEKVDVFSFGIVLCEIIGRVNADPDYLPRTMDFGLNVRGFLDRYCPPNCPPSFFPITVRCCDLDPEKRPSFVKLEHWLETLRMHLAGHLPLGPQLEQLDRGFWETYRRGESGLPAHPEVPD
attribute measured: pKd
API: returns pKd as number; meaning -log10 of concentration in mol/L.

Request: Give pKd for this entry on LIMK1 (human) (UniProt P53667): `COc1cc2ncnc(Oc3cccc(NC(=O)Nc4cc(C(C)(C)C(F)(F)F)on4)c3)c2cc1OC`
Response: 4.57

====

Target: MAP3K9 (human) (UniProt P80192)
attribute measured: pKd
API: returns pKd as number; meaning -log10 of concentration in mol/L.

Request: Give pKd for this entry on MAP3K9 (human) (UniProt P80192): `COc1cc2ncnc(Oc3cccc(NC(=O)Nc4cc(C(C)(C)C(F)(F)F)on4)c3)c2cc1OC`
Response: 5.82

====

Biological target: FLT3 (human), P36888 [ITD]
Sequence (P36888 whole entry, looked up, change not shown): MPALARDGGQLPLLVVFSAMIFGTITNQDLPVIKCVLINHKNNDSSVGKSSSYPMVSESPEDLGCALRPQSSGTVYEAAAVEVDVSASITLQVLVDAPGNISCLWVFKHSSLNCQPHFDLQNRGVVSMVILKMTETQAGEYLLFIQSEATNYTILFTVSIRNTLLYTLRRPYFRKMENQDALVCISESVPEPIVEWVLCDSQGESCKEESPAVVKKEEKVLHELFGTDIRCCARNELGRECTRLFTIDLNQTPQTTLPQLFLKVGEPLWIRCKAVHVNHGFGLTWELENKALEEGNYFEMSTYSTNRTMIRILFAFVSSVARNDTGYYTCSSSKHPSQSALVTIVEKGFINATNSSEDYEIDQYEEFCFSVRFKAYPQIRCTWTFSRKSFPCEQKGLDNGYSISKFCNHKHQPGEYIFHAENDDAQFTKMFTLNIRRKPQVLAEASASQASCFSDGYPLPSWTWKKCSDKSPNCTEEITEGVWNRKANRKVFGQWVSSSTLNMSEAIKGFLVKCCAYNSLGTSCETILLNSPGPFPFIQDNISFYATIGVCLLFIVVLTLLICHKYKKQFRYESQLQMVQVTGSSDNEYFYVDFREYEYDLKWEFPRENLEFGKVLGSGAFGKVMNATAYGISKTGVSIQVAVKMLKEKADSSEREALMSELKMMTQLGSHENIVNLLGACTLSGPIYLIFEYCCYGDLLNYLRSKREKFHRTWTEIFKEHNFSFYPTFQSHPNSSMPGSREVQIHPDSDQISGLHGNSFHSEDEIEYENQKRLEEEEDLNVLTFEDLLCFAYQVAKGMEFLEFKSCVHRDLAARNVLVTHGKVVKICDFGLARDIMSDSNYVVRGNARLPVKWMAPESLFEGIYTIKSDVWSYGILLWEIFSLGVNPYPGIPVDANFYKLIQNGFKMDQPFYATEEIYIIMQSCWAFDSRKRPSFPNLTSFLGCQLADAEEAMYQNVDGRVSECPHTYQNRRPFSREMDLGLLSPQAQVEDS
Assay: KINOMEscan competition binding
attribute measured: Kd (nM)
Quick reminder: number only, in nM, skip the unit.

Request: Output Kd of `COc1cc2ncnc(Oc3cccc(NC(=O)Nc4cc(C(C)(C)C(F)(F)F)on4)c3)c2cc1OC`
Response: 22

====

Biological target: CDC42BPA (human) (UniProt Q5VT25)
attribute measured: pKd
API: returns pKd as number; meaning -log10 of concentration in mol/L.

Request: Output pKd of `COc1cc2ncnc(Oc3cccc(NC(=O)Nc4cc(C(C)(C)C(F)(F)F)on4)c3)c2cc1OC`
Response: 4.52

====

Target: JAK2 JH1 catalytic (human) (UniProt O60674)
Assay: KINOMEscan competition binding
attribute measured: Kd (µM)
Quick reminder: number only, in µM, skip the unit.

Request: Output Kd of `COc1cc2ncnc(Oc3cccc(NC(=O)Nc4cc(C(C)(C)C(F)(F)F)on4)c3)c2cc1OC`
Response: 14

====

Target: SRMS (human) (UniProt Q9H3Y6)
attribute measured: pKd
API: returns pKd as number; meaning -log10 of concentration in mol/L.

Request: Give pKd for this entry on SRMS (human) (UniProt Q9H3Y6): `COc1cc2ncnc(Oc3cccc(NC(=O)Nc4cc(C(C)(C)C(F)(F)F)on4)c3)c2cc1OC`
Response: 5.52

====

Molecular target: TNNI3K (human) (UniProt Q59H18)
attribute measured: pKd
API: returns pKd as number; meaning -log10 of concentration in mol/L.

Request: Give pKd for this entry on TNNI3K (human) (UniProt Q59H18): `COc1cc2ncnc(Oc3cccc(NC(=O)Nc4cc(C(C)(C)C(F)(F)F)on4)c3)c2cc1OC`
Response: 7.55

====

Biological target: MYO3A (human)
attribute measured: pKd
API: returns pKd as number; meaning -log10 of concentration in mol/L.

Request: Output pKd of `COc1cc2ncnc(Oc3cccc(NC(=O)Nc4cc(C(C)(C)C(F)(F)F)on4)c3)c2cc1OC`
Response: 4.82

====

Target: UniProtKB O94806
attribute measured: pKd
API: returns pKd as number; meaning -log10 of concentration in mol/L.

Request: Output pKd of `COc1cc2ncnc(Oc3cccc(NC(=O)Nc4cc(C(C)(C)C(F)(F)F)on4)c3)c2cc1OC`
Response: 5.20

====

Biological target: PIK3CA (human), P42336 [E542K]
Sequence (P42336 whole entry E542K, looked up): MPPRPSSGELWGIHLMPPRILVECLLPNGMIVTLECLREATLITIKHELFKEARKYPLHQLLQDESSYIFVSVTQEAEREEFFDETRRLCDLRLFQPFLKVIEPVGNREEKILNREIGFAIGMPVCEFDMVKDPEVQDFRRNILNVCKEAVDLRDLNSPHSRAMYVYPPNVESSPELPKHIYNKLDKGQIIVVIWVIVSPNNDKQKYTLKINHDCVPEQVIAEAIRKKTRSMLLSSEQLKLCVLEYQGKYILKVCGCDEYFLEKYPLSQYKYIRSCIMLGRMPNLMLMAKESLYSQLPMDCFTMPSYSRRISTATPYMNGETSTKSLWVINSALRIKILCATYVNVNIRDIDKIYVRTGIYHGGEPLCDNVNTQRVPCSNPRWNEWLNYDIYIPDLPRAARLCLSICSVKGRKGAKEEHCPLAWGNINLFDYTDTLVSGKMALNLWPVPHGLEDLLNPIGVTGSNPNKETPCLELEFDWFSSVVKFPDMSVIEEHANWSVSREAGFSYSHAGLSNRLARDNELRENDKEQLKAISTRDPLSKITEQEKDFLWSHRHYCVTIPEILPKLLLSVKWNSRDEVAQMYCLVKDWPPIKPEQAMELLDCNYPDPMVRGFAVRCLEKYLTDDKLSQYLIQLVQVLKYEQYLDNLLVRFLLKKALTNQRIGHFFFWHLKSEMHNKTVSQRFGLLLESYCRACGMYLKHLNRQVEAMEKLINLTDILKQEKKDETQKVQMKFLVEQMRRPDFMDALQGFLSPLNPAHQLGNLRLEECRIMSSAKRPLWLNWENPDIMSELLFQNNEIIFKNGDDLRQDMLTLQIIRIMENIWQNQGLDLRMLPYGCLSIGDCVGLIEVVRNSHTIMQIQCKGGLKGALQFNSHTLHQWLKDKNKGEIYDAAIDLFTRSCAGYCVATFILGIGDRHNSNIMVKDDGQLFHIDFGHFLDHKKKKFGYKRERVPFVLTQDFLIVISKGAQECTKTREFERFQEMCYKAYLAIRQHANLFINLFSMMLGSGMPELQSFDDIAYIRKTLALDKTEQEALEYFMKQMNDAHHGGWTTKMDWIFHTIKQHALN
Assay: KINOMEscan competition binding
attribute measured: Kd (µM)
Quick reminder: number only, in µM, skip the unit.

Request: Output Kd of `COc1cc2ncnc(Oc3cccc(NC(=O)Nc4cc(C(C)(C)C(F)(F)F)on4)c3)c2cc1OC`
Response: 27

====

Target: UniProt:Q9Y5S2
attribute measured: Kd (nM)
Quick reminder: number only, in nM, skip the unit.

Request: Output Kd of `COc1cc2ncnc(Oc3cccc(NC(=O)Nc4cc(C(C)(C)C(F)(F)F)on4)c3)c2cc1OC`
Response: 2000

====

Target: MKNK1 (human) (UniProt Q9BUB5)
attribute measured: pKd
API: returns pKd as number; meaning -log10 of concentration in mol/L.

Request: Give pKd for this entry on MKNK1 (human) (UniProt Q9BUB5): `COc1cc2ncnc(Oc3cccc(NC(=O)Nc4cc(C(C)(C)C(F)(F)F)on4)c3)c2cc1OC`
Response: 5.59

====

Target: PIK3CA (human), P42336 [Q546K]
Experiment: KINOMEscan competition binding
attribute measured: pKd
API: returns pKd as number; meaning -log10 of concentration in mol/L.

Request: Output pKd of `COc1cc2ncnc(Oc3cccc(NC(=O)Nc4cc(C(C)(C)C(F)(F)F)on4)c3)c2cc1OC`
Response: 4.55

====

Target: MAPK14 (human)
attribute measured: pKd
API: returns pKd as number; meaning -log10 of concentration in mol/L.

Request: Output pKd of `COc1cc2ncnc(Oc3cccc(NC(=O)Nc4cc(C(C)(C)C(F)(F)F)on4)c3)c2cc1OC`
Response: 7.42

====

Target: DDR1 (human)
Test: KINOMEscan competition binding
attribute measured: Kd

Request: Output Kd of `COc1cc2ncnc(Oc3cccc(NC(=O)Nc4cc(C(C)(C)C(F)(F)F)on4)c3)c2cc1OC`
Response: 0.6 nM

====

Biological target: CDK7 (human) (UniProt P50613)
Sequence (P50613 whole entry, looked up): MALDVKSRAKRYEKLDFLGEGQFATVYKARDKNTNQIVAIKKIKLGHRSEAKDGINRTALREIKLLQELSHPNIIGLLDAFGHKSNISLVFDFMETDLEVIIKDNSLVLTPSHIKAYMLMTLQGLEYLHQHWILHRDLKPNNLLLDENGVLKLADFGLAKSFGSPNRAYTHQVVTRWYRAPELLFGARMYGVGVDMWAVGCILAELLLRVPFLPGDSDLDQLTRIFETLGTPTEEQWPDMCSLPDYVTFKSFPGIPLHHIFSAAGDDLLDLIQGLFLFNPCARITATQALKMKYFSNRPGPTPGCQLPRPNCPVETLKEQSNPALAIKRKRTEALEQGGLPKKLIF
attribute measured: Kd
Please append the unit to your numeric answer.

Request: Output Kd of `COc1cc2ncnc(Oc3cccc(NC(=O)Nc4cc(C(C)(C)C(F)(F)F)on4)c3)c2cc1OC`
Response: 520 nM

====

Molecular target: RPS6KA4 KD1 (human)
attribute measured: Kd (µM)
Quick reminder: number only, in µM, skip the unit.

Request: Output Kd of `COc1cc2ncnc(Oc3cccc(NC(=O)Nc4cc(C(C)(C)C(F)(F)F)on4)c3)c2cc1OC`
Response: 1.9

====

Target: JAK1 JH2 pseudokinase (human) (UniProt P23458)
Sequence (P23458 whole entry, looked up): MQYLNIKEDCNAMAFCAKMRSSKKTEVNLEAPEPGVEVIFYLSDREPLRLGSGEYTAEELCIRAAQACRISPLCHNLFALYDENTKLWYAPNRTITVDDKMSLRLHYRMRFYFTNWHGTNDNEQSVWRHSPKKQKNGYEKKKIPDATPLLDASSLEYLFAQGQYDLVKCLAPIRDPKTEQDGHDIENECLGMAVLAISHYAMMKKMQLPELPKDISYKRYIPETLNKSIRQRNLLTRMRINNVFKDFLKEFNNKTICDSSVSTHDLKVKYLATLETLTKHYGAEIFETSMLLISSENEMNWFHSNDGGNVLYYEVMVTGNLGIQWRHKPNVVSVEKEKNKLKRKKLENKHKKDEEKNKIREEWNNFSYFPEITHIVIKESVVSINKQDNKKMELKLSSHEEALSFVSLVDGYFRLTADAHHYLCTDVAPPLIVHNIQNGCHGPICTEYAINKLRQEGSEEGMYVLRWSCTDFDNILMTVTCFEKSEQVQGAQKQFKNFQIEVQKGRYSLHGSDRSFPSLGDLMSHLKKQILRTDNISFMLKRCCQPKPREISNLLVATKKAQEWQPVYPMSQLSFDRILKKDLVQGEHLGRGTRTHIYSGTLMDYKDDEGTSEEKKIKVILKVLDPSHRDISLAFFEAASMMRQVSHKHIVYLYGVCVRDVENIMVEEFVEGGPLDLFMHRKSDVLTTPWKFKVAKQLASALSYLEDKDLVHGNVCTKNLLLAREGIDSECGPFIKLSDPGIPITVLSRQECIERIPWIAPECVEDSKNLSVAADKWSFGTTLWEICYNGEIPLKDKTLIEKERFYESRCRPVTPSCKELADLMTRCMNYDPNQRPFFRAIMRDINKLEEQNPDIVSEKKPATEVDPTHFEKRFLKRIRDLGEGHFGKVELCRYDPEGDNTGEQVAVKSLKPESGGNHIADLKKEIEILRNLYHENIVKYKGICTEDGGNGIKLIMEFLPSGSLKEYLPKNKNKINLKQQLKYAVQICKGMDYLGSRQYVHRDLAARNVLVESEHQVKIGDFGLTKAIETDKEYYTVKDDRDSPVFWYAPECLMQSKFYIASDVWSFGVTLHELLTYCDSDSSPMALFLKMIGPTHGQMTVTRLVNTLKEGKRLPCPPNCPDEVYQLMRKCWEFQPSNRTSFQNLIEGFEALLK
Assay: KINOMEscan competition binding
attribute measured: Kd (µM)
Quick reminder: number only, in µM, skip the unit.

Request: Output Kd of `COc1cc2ncnc(Oc3cccc(NC(=O)Nc4cc(C(C)(C)C(F)(F)F)on4)c3)c2cc1OC`
Response: 33

====

Molecular target: AURKB (human) (UniProt Q96GD4)
attribute measured: Kd

Request: Give Kd for this entry on AURKB (human) (UniProt Q96GD4): `COc1cc2ncnc(Oc3cccc(NC(=O)Nc4cc(C(C)(C)C(F)(F)F)on4)c3)c2cc1OC`
Response: 25 µM

====

Target: HCK (human) (UniProt P08631)
attribute measured: pKd
API: returns pKd as number; meaning -log10 of concentration in mol/L.

Request: Give pKd for this entry on HCK (human) (UniProt P08631): `COc1cc2ncnc(Oc3cccc(NC(=O)Nc4cc(C(C)(C)C(F)(F)F)on4)c3)c2cc1OC`
Response: 7.89
